Numbers sourced from ChEMBL document CHEMBL3988442.

target: Ubiquitin-activating enzyme e1, putative (Leishmania donovani (strain BPK282A1)) (UniProt E9BSI1); experiment: Leishmania donovani Ubiquitin Activating Enzyme (LdE1); assay type: functional; design: scale not given: direction of the effect not stated beside the values; settings: 30 µM
Sequence (E9BSI1 as listed by the source): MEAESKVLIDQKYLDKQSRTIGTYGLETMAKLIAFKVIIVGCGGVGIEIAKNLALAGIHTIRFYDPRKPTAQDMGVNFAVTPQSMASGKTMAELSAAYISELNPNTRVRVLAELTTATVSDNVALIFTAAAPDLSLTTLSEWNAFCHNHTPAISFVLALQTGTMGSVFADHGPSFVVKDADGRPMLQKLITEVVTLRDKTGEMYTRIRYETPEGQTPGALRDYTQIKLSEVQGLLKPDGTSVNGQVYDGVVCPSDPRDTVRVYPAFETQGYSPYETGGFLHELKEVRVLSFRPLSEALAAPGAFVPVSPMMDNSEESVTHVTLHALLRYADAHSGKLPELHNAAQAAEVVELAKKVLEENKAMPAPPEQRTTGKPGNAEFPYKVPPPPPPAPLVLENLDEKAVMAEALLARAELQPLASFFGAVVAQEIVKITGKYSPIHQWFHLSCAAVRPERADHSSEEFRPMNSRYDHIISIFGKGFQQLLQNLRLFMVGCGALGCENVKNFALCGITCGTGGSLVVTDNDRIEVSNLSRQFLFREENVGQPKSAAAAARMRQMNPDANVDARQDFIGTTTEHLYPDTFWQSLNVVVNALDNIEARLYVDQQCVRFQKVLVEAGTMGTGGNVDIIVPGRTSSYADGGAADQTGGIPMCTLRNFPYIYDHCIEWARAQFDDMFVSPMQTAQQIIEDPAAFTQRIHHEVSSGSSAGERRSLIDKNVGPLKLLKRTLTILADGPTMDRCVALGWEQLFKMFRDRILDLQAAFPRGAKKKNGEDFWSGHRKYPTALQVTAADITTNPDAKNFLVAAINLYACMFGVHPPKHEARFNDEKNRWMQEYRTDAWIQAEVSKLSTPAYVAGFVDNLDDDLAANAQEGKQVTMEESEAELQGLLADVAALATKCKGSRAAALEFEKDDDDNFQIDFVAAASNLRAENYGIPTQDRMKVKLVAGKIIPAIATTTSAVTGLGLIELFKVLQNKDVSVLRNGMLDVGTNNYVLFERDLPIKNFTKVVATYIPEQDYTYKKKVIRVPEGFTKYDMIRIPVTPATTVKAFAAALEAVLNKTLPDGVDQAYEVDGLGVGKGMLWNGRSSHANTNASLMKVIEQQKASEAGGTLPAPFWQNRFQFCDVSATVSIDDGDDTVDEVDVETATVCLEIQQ
Entries with a potency or affinity are not part of this list.
# key: entry, value: Percent Effect
Could you give me the number in %? Just the number is fine.

Here's what some known entries look like.
CCCn1nc2c(cc1=O)CN(CCCS(N)(=O)=O)CC2; 0
Cc1ccc(S(=O)(=O)NC(=O)c2c(C)noc2C(C)C)cc1C; 10.5
Cc1cc(C2CCCN(C(=O)c3c(C)noc3C)C2)n[nH]1 (stereo not drawn); 2.63
CS(=O)(=O)c1ccc(OCCNCc2ccc(F)cc2F)cc1; 8.22
Cc1nc(N2CCCC2)ncc1-c1cc(O)nc(N2CCCC2)n1; -1.33

Quick one: Percent Effect of `CCOC(=O)c1c(NC(=O)CN2CCN(C(C)=O)CC2)sc2c1CCC2` ?
7.89

Try this molecule too: CN(Cc1cccc(O)c1)CC1CCCN(CCc2ccc(Cl)cc2)C1 (stereo not drawn)
-13.5

Consider next the molecule `c1nc2c(c(C3CC3)n1)CCN(Cc1ccc3c(c1)OCO3)CC2` in the same way.
-5.48

Try this molecule too: Cc1ccc(C(O)CNCc2c(C(C)C)nn(C)c2N(C)C)cc1 (stereo not drawn)
13

Okay, and `O=C(NCc1ccccc1CN1CCC(O)CC1)Nc1ccncc1` ?
10.8

Likewise for `CNC(=O)CC1CCN(Cc2nc(-c3cccc(Cl)c3)oc2C)CC1` ?
8.11

====

Biological target: Proteasome subunit beta (Trypanosoma cruzi)
Sequence (whole entry): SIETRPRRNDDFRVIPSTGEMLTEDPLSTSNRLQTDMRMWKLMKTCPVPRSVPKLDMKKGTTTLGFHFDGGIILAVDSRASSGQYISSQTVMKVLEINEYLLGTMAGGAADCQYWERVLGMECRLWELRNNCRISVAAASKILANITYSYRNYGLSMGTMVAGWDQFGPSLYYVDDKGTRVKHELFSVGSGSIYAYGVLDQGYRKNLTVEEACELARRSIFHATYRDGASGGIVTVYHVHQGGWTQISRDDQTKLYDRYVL
Experiment: Trypanosoma cruzi proteasome chymotrypsin-like activity (TcProtChymo) assay. Also: in the data most compounds retested in dose-response had high values.
Format: functional
Set-up: scale not given: direction of the effect not stated beside the values
Settings: 9.37 µM
Below: a set of entries, each annotated with reported Percent Effect.
Provide the measurement as a number trailed by its unit.

Recorded Percent Effect, per entry:
N#Cc1ccc(CN2CCC(c3ccnn3CCO)CC2)cc1; -4.48%
COCC1CCN(C(=O)c2cccc(S(=O)(=O)NCC3(C)COC3)c2)C1 (stereo unspecified); 1.63%
CCn1c(C(=O)N2CCN(CC(C)O)CC2)cc2ccccc21 (stereo unspecified); 6.42%
CNS(=O)(=O)c1cccc(C(C)NCc2nccn2C(C)C)c1 (stereo unspecified); 16.3%
Cc1cnc2c(S(=O)(=O)NCC3CCS(=O)(=O)C3)cccc2c1 (stereo unspecified); 16.8%
COCCO[C@@H]1C[C@H]2CN(C(=O)c3cnccn3)CCN2C1; 4.79%
COc1ccc(CN(C)[C@@H]2CN(C(=O)c3cccs3)C[C@H]2O)cc1; 10.6%
Fc1ccc(-c2cnc(CN3CCCC3Cn3cccn3)o2)cc1 (stereo unspecified); 12.7%

Recorded Percent Effect for `COc1cc(C)nc(N2CCN(C(=O)CCc3nccs3)CC2)n1` , please?
14.5%

Repeat for the following compound: COCC(NC(=O)c1cnn(C)c1)c1cccc(C(F)(F)F)c1 (stereo unspecified)
7.28%

// same read-out, input: `Cc1nc(CN2C[C@@H]3CN(C(=O)c4ccnnc4)C[C@@H]3C2=O)cs1`
11.6%

====

molecular target: Sialic acid-binding Ig-like lectin 9 (Homo sapiens) (UniProt Q9Y336); assay: Hs-Siglec9 ALPHAscreen SOP 20170721; design: scale not given: direction of the effect not stated beside the values; conditions: 10 µM
Sequence (Q9Y336 whole entry): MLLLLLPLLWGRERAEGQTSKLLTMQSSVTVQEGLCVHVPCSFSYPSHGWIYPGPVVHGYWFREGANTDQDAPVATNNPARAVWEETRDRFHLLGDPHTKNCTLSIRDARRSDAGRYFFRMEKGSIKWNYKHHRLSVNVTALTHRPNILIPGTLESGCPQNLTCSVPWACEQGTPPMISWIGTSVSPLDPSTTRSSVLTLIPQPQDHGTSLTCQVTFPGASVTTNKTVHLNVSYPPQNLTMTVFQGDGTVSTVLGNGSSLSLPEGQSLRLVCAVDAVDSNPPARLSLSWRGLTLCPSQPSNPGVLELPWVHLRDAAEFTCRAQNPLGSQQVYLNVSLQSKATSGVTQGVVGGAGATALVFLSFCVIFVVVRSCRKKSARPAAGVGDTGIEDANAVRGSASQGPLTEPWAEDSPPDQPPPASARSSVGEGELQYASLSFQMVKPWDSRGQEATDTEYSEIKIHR
assay_endpoint: Percent Effect (%)
Write the number in % without appending the unit.

Cc1noc(C)c1-c1cccc(CC2CCN(C(=O)CCC(=O)O)C2)n1 (configuration not stated); 4.95
O=C1N(Cc2cccc(F)c2F)CCCC1(O)CN1CCCOCC1 (configuration not stated); 6.26
COCCN(Cc1ccoc1)C(=O)c1c(F)cccc1Cl; 9.59
Cc1ccc(CCC(=O)N(C)CCN2CCOCC2)c(C)c1; 4.55
Cc1nnc(N2CCC(CS(N)(=O)=O)CC2)c(C#N)c1C; -9.8
Cc1cccc(CNC(CN2CCN(C)CC2)c2ccccc2)c1 (configuration not stated); 17.7
COc1cc(CNC(=O)NCc2c(C)cc(C)[nH]c2=O)ccc1C; 4.36
NCCn1nc(C2CCN(C(=O)CC3CCCCC3)C2)c2nccnc21 (configuration not stated); 8.44
Oc1nc(N2CCOCC2)nc2c1CCN(Cc1cccnc1)CC2; 1.25
COc1ccc(C(=O)N(C)Cc2cccc(C#N)c2)c(OC)c1OC; 10.9

Could you now look at the following molecule, please?
Can you look up the measured Percent Effect of `Cc1ccc(NC2CCN(C(=O)Cc3ccc(C#N)cc3)CC2)nn1` for me?
18.2

====

We begin with a simple list: items and their reported Percent Effect.
target: Sialic acid-binding Ig-like lectin 9 (Homo sapiens); assay: Hs-Siglec9 ALPHAscreen SOP 20170721; design: scale not given: direction of the effect not stated beside the values; conditions: 10 µM
Write the number in % without appending the unit.

Cn1nc(CNC(=O)C2CCCC2)cc1C1CC1; -7.84
CCc1nc2n(n1)CC(NCc1noc(-c3ccccc3)n1)CC2 (centres undefined); 10.4
Cc1cc(C)n(CC2CCCN2C(=O)c2cccc3[nH]ncc23)n1 (centres undefined); 12.1
CC(=O)N1CCCC(Cc2cncc(Br)c2)CC1 (centres undefined); 1.66
CN1CC(=O)N(c2ccccc2)CC12CCN(Cc1cccnc1)C2 (centres undefined); 2.38
O=C(c1ccc(Cl)cc1)N1CCCn2nnc(Cn3cccn3)c2C1; 15.3
O=C(CN1CCCC1Cn1cccn1)NC1CCOCC1 (centres undefined); -1.02
Cc1nn(C)c(C)c1CCC(=O)N1CCCC1Cn1cccn1 (centres undefined); -1.49
O=C(CN1CCCCC1Cn1cncn1)NCCC1=CCCCC1 (centres undefined); 4.8
CC(C)(C)n1cc(C(=O)N2CCCN(Cc3cccs3)CC2)cn1; 2.97

What does the data say about its Percent Effect? Entry: `CC(C)c1cc(NC(=O)CN2CCc3ccccc3C2)on1`
2.02

Check O=C(NCC1CCS(=O)(=O)C1)c1sccc1-c1ccc(F)cc1 (centres undefined) too.
24.1

// next record `CNC(=O)[C@@]12CCO[C@@H]1CCN(S(=O)(=O)c1cccc(C)c1)C2`
0.794

Request: `O=C(NCCN1CCOCC1)c1cc(-c2ccc3c(c2)CCO3)n[nH]1`
-3.18

Can you handle CCN(Cc1ccc2c(c1)OCO2)C(=O)NC(C)Cn1cccn1 (centres undefined) next?
-4.68

Same thing, different compound: CC(=O)N1CCCC(c2ccc(Nc3nc(C)cc(C)n3)cn2)C1 (centres undefined)
0.842

Another compound to check: `O=C(N[C@@H]1CN(Cc2ccccc2)C[C@@H]2CCCO[C@@H]21)C1CC1`
7.92

====

The entries below are paired with their reported Percent Effect.
molecular target: AMP-activated protein kinase, AMPK (Homo sapiens) (UniProt P54646+O43741+P54619+Q9UGJ0+Q9Y478+Q13131+Q9UGI9); experiment: AMP-dependent Kinase enzyme assay. An in vitro enzyme assay that detects ADP turnover that is directly proportional to AMPK activity. This uses naive AMPK that is activated during the assay with MK-8722; format: functional; parameters: scale not given: direction of the effect not stated beside the values; conditions: 30 µM
State just the number; it will be interpreted in %.

Known Percent Effect results, listed for orientation:
CC(C)(C)n1ncc2c1CCCC2NCc1cccc2c1OCO2 (stereo unspecified); 2.85
Cc1nnc(NCC2(c3ccccc3)CC2)c(C#N)c1C; -11.8
CC(C)COC(C)C(=O)NCc1cc(F)cc(F)c1 (stereo unspecified); 8.53
Cc1ccc(C(=O)N2CCN(CC(O)c3ccc(F)cc3)CC2)s1 (stereo unspecified); 6.49
Cc1ncsc1C(=O)NCCSCCCO; -5.95

Let us examine a further case.
# input compound: COCC(NC(=O)c1cnn(C)c1)c1cccc(C(F)(F)F)c1 (stereo unspecified) ; wanted: its Percent Effect
-3.2

====

# Lookup of reported Percent Effect keyed by entry
tested on: Trypanosoma cruzi; assay: Trypanosoma cruzi phosphomannomutase and mannose-1-phosphate guanylyltransferase assay; type: functional; design: scale not given: direction of the effect not stated beside the values; settings: 10 µM
Give a bare numeral; the unit % is implied.

Below, each entry is followed by its recorded Percent Effect result.
O=C(C1CCCC1)N1CCN(Cc2nc(-c3ccco3)no2)CC1; 3.99
CCc1nnc2n1CCN(C(=O)c1ccc3[nH]cnc3c1)C2; 6.9
CCN(Cc1nc(C(C)C)no1)Cc1cccs1; 5.8

I would be grateful if you could share the reported Percent Effect for `Cc1oc(C(=O)O)cc1S(=O)(=O)Nc1cc(Cl)ccc1F` .
0.374

Again, but for Cc1c(C2CCCN(C(=O)Cc3ccccn3)C2)n2c(nc1=O)CCC2 (centres undefined)
-5.53

Item: `CN(C(=O)c1cccc(C(=O)NCC(F)(F)F)c1)c1ccccc1`
-5.8
